Please respond with reported % CAF 10 uM @ 60 min for every item in the list.
Target: Cys12 of the KRAS 4B G12C protein (Homo sapiens, UniProt P01116, G12C)
Construct: This protein contained 188 amino acids in total, including an N-terminal 6-Histidine tag; made in house; host or cells: E. coli BL21
Assay: In vitro covalent adduct formation (CAF) assay, LC-MS intact mass
Type: binding
Details: 10 uM compound, 60 min incubation
# unit: % | format: bare number

Input line: For the compound C=CC(=O)N1[C@H](C)CN(c2nc(=O)n3c4c(c(-c5ccc(F)cc5)c(C(F)(F)F)cc24)SC[C@H](N2CCOCC2)C3)C[C@@H]1C , report % CAF 10 uM @ 60 min.
Output line: 92.4

Input line: For the compound C=CC(=O)N1C[C@H](C)N(c2nc(=O)n3c4c(c(-c5ccc(F)cc5)c(C(F)(F)F)cc24)SCC2(COC2)C3)C[C@H]1C , report % CAF 10 uM @ 60 min.
Output line: 95.4

Input line: For the compound C=CC(=O)N1CCN(c2nc(=O)n3c4c(c(-c5ccc(F)cc5F)c(C(F)(F)F)cc24)SCC2(COC2)C3)CC1 (atropisomer, axis not shown) [Example 1127] , report % CAF 10 uM @ 60 min.
Output line: 95.3

Input line: For the compound C=CC(=O)N1[C@H](C)CN(c2nc(=O)n3c4c(c(-c5cc(Cl)c(F)cc5F)c(C(F)(F)F)cc24)SC[C@H](N2CCOCC2)C3)C[C@@H]1C (atropisomer, axis not shown) [Example 1114] , report % CAF 10 uM @ 60 min.
Output line: 71.7

Input line: For the compound C=CC(=O)N1C[C@H](C)N(c2nc(=O)n3c4c(c(-c5cc(Cl)c(F)cc5F)c(C(F)(F)F)cc24)SCC2(COC2)C3)C[C@H]1C (single isomer, unassigned) [Example 1121] , report % CAF 10 uM @ 60 min.
Output line: 95.5
